Reference source for all entries: ChEMBL document CHEMBL1201861

# Test system: MC-CAR;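 also: growth inhibition of the human MC-CAR cell line, read out by a cell viability assay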
# method_notes: cells
# Assay type: functional, cell-based
# condition_summary: Homo sapiens
# Description: SANGER: Inhibition of human MC-CAR cell growth in a cell viability assay.
measure_name: IC50

Short answer for C=C1C(=O)O[C@@H]2C3O[C@]3(C)CC/C=C(\C)CC[C@@H]12 (stereo partly specified) : IC50 was > 5 µM

Short answer for `CN1CCN(CCOc2cc(OC3CCOCC3)c3c(Nc4c(Cl)ccc5c4OCO5)ncnc3c2)CC1` : IC50 was > 2 µM

Short answer for `Cc1ccc(Nc2nccc(N(C)c3ccc4c(C)n(C)nc4c3)n2)cc1S(N)(=O)=O` : IC50 was > 8 µM

Short answer for `CN(c1ncccc1CNc1nc(Nc2ccc3c(c2)CC(=O)N3)ncc1C(F)(F)F)S(C)(=O)=O` : IC50 was > 2.56 µM

Short answer for `CS(=O)(=O)CCNCc1ccc(-c2ccc3ncnc(Nc4ccc(OCc5cccc(F)c5)c(Cl)c4)c3c2)o1` : IC50 was > 2 µM

Short answer for `CCc1nc(N)nc(N)c1-c1ccc(Cl)cc1` : IC50 was > 20 µM
